targetOfAssay: T1, recombinant human VEGF165 (human, UniProt P15692 27-191)
T1 construct: mature; Isoform VEGF165 of the entry; also called hVEGF165; hVEGF
T1 sequence (P15692 other isoform, or with tags, fused parts or gaps): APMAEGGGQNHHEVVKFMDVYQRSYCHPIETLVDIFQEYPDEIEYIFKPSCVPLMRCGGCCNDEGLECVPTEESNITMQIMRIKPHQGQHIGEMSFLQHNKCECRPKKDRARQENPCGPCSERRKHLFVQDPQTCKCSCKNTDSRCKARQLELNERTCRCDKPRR
protocol: Biacore SPR, VEGF immobilized, pH 7.4
The following binders are shown together with reported kon values.
Give just the number in M⁻¹ s⁻¹; leave the unit off.

# count of solved cases: 2
- binder: "567-max (scFv, VL and VH tied by name; also called Protein Nr; 874) scFv: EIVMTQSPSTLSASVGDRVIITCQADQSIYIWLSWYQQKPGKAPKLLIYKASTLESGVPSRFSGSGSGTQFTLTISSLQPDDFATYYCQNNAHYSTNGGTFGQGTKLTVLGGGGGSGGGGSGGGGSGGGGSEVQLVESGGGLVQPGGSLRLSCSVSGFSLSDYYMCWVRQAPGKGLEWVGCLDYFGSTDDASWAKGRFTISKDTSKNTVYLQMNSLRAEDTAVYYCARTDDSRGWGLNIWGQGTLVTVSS"
  kon / M⁻¹ s⁻¹: "1.17e+06"
- binder: "435-max (scFv, the scFv entry is used; also called Protein Nr; 945) scFv: EIVMTQSPSTLSASVGDRVIITCQASQSIGSSLAWYQQKPGKAPKLLIYTAANLASGVPSRFSGSRSGAEFTLTISSLQPDDFATYYCQNFATSDTVTFGQGTKLTVLGGGGGSGGGGSGGGGSGGGGSEVQLVESGGGLVQPGGSLRLSCKASGFSLNTNYWMCWVRQAPGKGLEWVGCMYTGSYNRAYYASWAKGRFTSSKDTSKNTVYLQMNSLRAEDTAVYYCAKGSNWYSDLWGQGTLVTVSS"
  kon / M⁻¹ s⁻¹: "1.13e+06"

Asked: Form field: reported kon of 435-min (scFv, VL and VH tied by name; also called Protein Nr; 944) scFv: EIVMTQSPSTLSASVGDRVIITCQASQSIGSSLAWYQQKPGKAPKLLIYTAANLASGVPSRFSGSGSGAEFTLTISSLQPDDFATYYCQNFATSDTVTFGQGTKLTVLGGGGGSGGGGSGGGGSGGGGSEVQLVESGGGLVQPGGSLRLSCAASGFSLNTNYWMCWVRQAPGKGLEWVSCMYTGSYNRAYYASWAKGRFTISRDNSKNTLYLQMNSLRAEDTAVYYCAKGSNWYSDLWGQGTLVTVSS
Given back: 495000
